Where do these numbers come from? They come from paper PMC5916850.

# target_of_assay: GRK5 (Homo sapiens)
# Sequence (P34947 whole entry, species assumed): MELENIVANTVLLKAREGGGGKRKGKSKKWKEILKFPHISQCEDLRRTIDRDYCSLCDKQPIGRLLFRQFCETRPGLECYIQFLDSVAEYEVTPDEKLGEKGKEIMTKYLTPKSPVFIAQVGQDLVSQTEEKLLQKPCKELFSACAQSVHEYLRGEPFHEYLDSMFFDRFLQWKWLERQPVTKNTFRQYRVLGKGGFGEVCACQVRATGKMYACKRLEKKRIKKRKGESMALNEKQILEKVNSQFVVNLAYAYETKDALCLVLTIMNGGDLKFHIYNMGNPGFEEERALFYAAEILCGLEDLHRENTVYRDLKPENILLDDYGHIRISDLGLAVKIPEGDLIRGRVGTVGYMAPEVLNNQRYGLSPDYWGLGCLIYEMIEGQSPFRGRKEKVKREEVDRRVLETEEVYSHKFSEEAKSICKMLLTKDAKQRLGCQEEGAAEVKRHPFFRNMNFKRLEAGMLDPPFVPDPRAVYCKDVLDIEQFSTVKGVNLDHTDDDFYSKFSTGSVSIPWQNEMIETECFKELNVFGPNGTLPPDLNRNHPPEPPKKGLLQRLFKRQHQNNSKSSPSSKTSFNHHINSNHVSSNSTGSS
# measurement_description: GRK phosphorylation assay, GRK5
# stated_conditions: average of three separate experiments run in duplicate; error = standard error of the mean

| compound | target_of_assay | GRK5 (IC50 μM) |
| --- | --- | --- |
| CC1=C(C(=O)Nc2ccc3[nH]ncc3c2)C(c2ccc(F)c(C(=O)NC(C)CCCC(C)C)c2)NC(=O)N1 (stereo not drawn) | GRK5 (Homo sapiens) | no sub-μM IC50 values |
| C#CCN(CC(C)C)C(=O)Cc1cc(C2NC(=O)NC(C)=C2C(=O)Nc2ccc3[nH]ncc3c2)ccc1F (stereo not drawn) | GRK5 (Homo sapiens) | no sub-μM IC50 values |
| CC1=C(C(=O)Nc2ccc3[nH]ncc3c2)C(c2ccc(F)c(C(=O)NC3CC4CCC3(C)C4(C)C)c2)NC(=O)N1 (stereo not drawn) | GRK5 (Homo sapiens) | no sub-μM IC50 values |
